protocol: NCI Yeast Anticancer Drug Screen. Data for the mlh1 rad18 strain (AID 175)
test_conditions: S. cerevisiae mlh1 rad18 strain growth inhibition; at 50.0 µM; stronger effect = higher value
This is part of a sample that, as a whole, favours compounds with a hit. Of some 79,000 tested, about 15% had one in any assay.
parameter: growth inhibition (%)
Form entry: value (%) — number only.

Prompt: Please report the recorded growth inhibition for CS/C([S-])=N/N=C/c1ccccn1.[Cl][Pt+] .
Response: 64.2

Prompt: Please answer likewise for c1cc[c]([Sn]([c]2ccccc2)([c]2ccccc2)[c]2ccccc2)cc1
Response: 81.9

Prompt: Can you check CC(C)(C)OOC(=O)c1ccccc1 next?
Response: 75.3

Prompt: Entry c1ccc(P(CCP(c2ccccc2)c2ccccc2)CCP(c2ccccc2)c2ccccc2)cc1 please
Response: 91.8

Prompt: Now consider CC(=O)OC(C)(C)/C=C/C(=O)[C@](C)(O)[C@H]1[C@H](O)C[C@@]2(C)[C@@H]3CC=C4[C@@H](C[C@H](O)[C@H](O)C4(C)C)[C@]3(C)C(=O)C[C@]12C and answer again.
Response: 91.8

Prompt: Now consider O=C(Nc1ccccc1)OC(C[N+](=O)[O-])C(Cl)(Cl)Cl (configuration not stated) and answer again.
Response: 99.2

Prompt: Now consider C/C(=N\N=C(N)N)C(CN1CCOCC1)C(c1ccccc1)c1c(O)c2ccccc2oc1=O (configuration not stated) .
Response: 49.2

Prompt: Note, next up: N=P(c1ccccc1)(c1ccccc1)c1ccccc1.[O]=[Cr](=[O])([OH])[O][Cr](=[O])(=[O])[OH]
Response: 53.2

Prompt: Moving on to N#Cc1ccc(N=Cc2c([O-])ccc3ccccc23)cc1.[C-]#[O+].[C-]#[O+].[Ir]
Response: 75.8

Prompt: Follow-up entry: O=c1oc2ccccc2c(O)c1C(c1ccc2c(c1)Cc1ccccc1-2)c1c(O)c2ccccc2oc1=O
Response: 88

Prompt: Also check [I][Hg][I].c1ccc(N=P(c2ccccc2)(c2ccccc2)c2ccccc2)cc1
Response: 99.3

Prompt: Moving on to the next molecule: Cc1ccc2c(c1)SP(=S)(c1ccccc1)N2 (configuration not stated)
Response: 98

Prompt: Another: C/C=C(\C)C(=O)OC1C(C)=C2C(C1OC(=O)CCCCC)C(C)(OC(C)=O)CC(OC(=O)CCC)C1(O)C2OC(=O)C1(C)O (configuration not stated)
Response: 67.6

Prompt: Record: COc1ccc(Br)cc1/C=C/[N+](=O)[O-]
Response: 98.7

Prompt: Repeat with O=[N+]([O-])c1ccc2c[n+]3ccccc3cc2c1
Response: 62

Prompt: Now the molecule Nc1ccc(N=Nc2ccccc2)cc1
Response: 82.5

Prompt: Same question, O=[N+]([O-])c1cc(S(=O)(=O)F)ccc1Cl this time
Response: 92.8

Prompt: Now consider CN(C)CCCNc1ccnc2c(COC(=O)N(CCCl)CCCl)ccc([N+](=O)[O-])c12 .
Response: 84.7

Prompt: Then this molecule: O=C1C=CC(=O)C1(Br)Br
Response: 99.2

Prompt: What do we get for COC(=O)C1=C(C(=O)OC)SC2(S1)C(C(=O)OC)=C(C(=O)OC)Sc1c2ssc1=O ?
Response: 86.8

Prompt: Now consider O=[N+]([O-])c1ccc(O)c(Cl)c1 and answer again.
Response: 70.8

Prompt: Repeat for the following molecule: C/C1=C\[C@@H](O)C(=O)/C=C/C=C\c2csc(n2)[C@@H](C)NC(=O)C[C@@]2(CC1)S(=O)SC(=O)[C@]2(C)O (some centres not stated)
Response: 85

Prompt: Param item: c1cc[c]([Pb]([c]2ccccc2)[c]2ccccc2)cc1.c1cc[c]([Pb]([c]2ccccc2)[c]2ccccc2)cc1
Response: 99.2

Prompt: Try this molecule next: CC#C[P+](c1ccccc1)(c1ccccc1)c1ccccc1
Response: 88.8

Prompt: Check COP(=S)(OC)N(C)C(=O)Oc1cccc2ccccc12 too.
Response: 80.8

Prompt: Next: N.N.N.N.N.N#N.[Cl-].[Os+7]
Response: 74

Prompt: Next molecule up: O=[N+]([O-])c1ccc(O)c(CCl)c1
Response: 76.2

Prompt: Another molecule: NC(=O)/C=C/C(=O)O (tested in a mixture with another compound)
Response: 17.5

Prompt: What do we get for O=C1NC(=S)NC(=O)C1=Cc1ccc([N+](=O)[O-])o1 ?
Response: 64

Prompt: Likewise for C/C(=N\Nc1ccccn1)C1CC[N-]C2C(O)CCCC12.C/C(=N\Nc1ccccn1)C1CC[N-]C2C(O)CCCC12.[Cu+2] (configuration not stated) ?
Response: 99.3

Prompt: Now give it for O=C(CI)NCc1ccccc1 too.
Response: 99.2

Prompt: Field entry: CC1=CCC2(C)C3CCC4(C)C(O)CCC4C3CCC2(C)C1 (configuration not stated)
Response: 58.6

Prompt: What about this molecule? O=C(O)C1C2CCC(C2)C1c1ccccc1 (configuration not stated)
Response: 20.1

Prompt: Try CCOC(=O)/C(=C\c1ccc(C(=O)OC)cc1)[Se]c1ccccc1 next.
Response: 58.8

Prompt: Now the molecule [Cl][Sn]1([c]2ccccc2)[O]CCNCC[O]1
Response: 91.8

Prompt: Thanks! And ClCCN(CCCl)c1ccc(C2N(Cc3ccc(Cl)cc3)CCCN2Cc2ccc(Cl)cc2)cc1 ?
Response: 98.4

Prompt: And CCC1(O)C(=O)OCc2c1cc1n(c2=O)Cc2cc3cc([N+](=O)[O-])ccc3nc2-1 (configuration not stated) ?
Response: 59.5

Prompt: Try O=[N+]([O-])C(Br)(Br)CCC(Br)(Br)[N+](=O)[O-] next.
Response: 99.5

Prompt: # repeat for CCCCC(CC)CNP(=S)(NCC(CC)CCCC)NCC(CC)CCCC (configuration not stated)
Response: 69.1

Prompt: // repeat for CC(=O)C(Br)C(C)=O.CC(=O)C(Br)C(C)=O.CC(=O)C(Br)C(C)=O.[Rh] and report
Response: 99.2

Prompt: Record: O=C(OCc1ccccc1)C(C(Cl)c1ccccc1)N(Cc1ccccc1)Cc1ccccc1 (configuration not stated)
Response: 86.5

Prompt: What about COc1ccc(OC)c(C=O)c1 ?
Response: -8

Entry source: PubChem BioAssay (NCI)
